protocol-summary: AUC (0 to 24 hrs) in dog at 10 mg/kg, po
Type: ADME, organism-based, Canis lupus familiaris
Design: time < 24 hr, dose 10 mg/kg, route oral
conditions-used: in vivo
experimental-endpoint: AUC(0-t) at 24 h (µM·h)

INSERT INTO assay_data (chemical_smiles, unit_spec, recorded_measurement) VALUES
  ('CNc1cc(Nc2cccn(-c3ccccn3)c2=O)nn2c(C(=O)N[C@@H]3C[C@@H]3F)cnc12', 'µM·h', 8);

---

experimental-target: Non-receptor tyrosine-protein kinase TYK2 (Homo sapiens)
Sequence (P29597 whole entry, the tested form may be a part): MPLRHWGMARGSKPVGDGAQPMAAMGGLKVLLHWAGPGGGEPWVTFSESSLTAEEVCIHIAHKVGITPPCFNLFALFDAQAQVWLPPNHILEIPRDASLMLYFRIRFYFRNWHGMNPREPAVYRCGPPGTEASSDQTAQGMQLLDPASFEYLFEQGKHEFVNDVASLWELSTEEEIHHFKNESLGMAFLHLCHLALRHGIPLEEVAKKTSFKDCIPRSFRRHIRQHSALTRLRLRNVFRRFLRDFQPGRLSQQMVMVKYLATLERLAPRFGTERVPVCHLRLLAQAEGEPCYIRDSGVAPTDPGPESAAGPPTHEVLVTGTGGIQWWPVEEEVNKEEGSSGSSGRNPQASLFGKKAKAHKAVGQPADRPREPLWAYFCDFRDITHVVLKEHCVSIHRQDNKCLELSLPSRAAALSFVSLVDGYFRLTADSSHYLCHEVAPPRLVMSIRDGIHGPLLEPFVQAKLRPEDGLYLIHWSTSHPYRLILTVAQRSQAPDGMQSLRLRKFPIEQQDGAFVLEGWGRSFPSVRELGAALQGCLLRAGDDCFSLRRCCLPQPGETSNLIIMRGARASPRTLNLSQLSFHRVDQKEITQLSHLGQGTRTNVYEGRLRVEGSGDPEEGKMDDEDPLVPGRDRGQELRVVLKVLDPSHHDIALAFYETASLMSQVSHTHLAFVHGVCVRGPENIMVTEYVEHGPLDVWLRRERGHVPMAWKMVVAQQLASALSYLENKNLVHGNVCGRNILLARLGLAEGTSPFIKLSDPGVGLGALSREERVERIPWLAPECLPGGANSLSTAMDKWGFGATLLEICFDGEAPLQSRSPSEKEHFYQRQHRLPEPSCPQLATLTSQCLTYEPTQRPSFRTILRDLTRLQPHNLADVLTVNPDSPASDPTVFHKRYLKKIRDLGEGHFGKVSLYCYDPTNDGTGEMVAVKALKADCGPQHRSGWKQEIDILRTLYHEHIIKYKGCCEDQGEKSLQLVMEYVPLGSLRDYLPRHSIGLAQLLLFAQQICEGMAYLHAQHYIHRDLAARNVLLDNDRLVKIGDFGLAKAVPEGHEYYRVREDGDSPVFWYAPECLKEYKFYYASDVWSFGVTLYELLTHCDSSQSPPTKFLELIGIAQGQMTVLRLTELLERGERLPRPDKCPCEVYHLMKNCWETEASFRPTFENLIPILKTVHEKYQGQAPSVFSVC
protocol-summary: Inhibition of TYK2 JH2 domain in human whole blood assessed as decrease in IFNalpha/IL2-induced STAT phosphorylation preincubated for 1 hr followed by IFNalpha/IL2 stimulation and measured after 15 mins by fluorescence assay
Format: tissue-based
experimental-endpoint: IC50 (µM)

INSERT INTO measurements (chemical_smiles, recorded_measurement) VALUES
  ('CNc1cc(Nc2cccn(-c3ccc(F)cn3)c2=O)nn2c(C(=O)NC3CC3)cnc12', 0.236),
  ('CNc1cc(Nc2cccn(-c3ccccn3)c2=O)nn2c(C(=O)NC3CCC3)cnc12', 0.384),
  ('CNc1cc(Nc2cccn(-c3ccc(C(C)(C)O)cc3)c2=O)nn2c(C(=O)NC3CC3)cnc12', 0.811),
  ('CNc1cc(Nc2cccn(-c3ccc(C)nn3)c2=O)nn2c(C(=O)NC3CC3)cnc12', 0.247),
  ('CNc1cc(Nc2cccn(-c3ccccn3)c2=O)nn2c(C(=O)NCC(C)(C)CO)cnc12', 0.285),
  ('CNc1cc(Nc2cccn(-c3ccc(C#N)cc3)c2=O)nn2c(C(=O)NC3CC3)cnc12', 0.268),
  ('CNc1cc(Nc2cccn(-c3ncccc3F)c2=O)nn2c(C(=O)NC3CC3)cnc12', 0.313);

---

protocol-summary: Aqueous solubility of the compound at pH 1
Assay type: physicochemical
conditions-used: buffer
experimental-endpoint: solubility (µg/mL)

INSERT INTO measurements (chemical_smiles, experimental_endpoint, recorded_measurement) VALUES
  ('CNc1cc(Nc2cccn(-c3ccc(C#N)cc3)c2=O)nn2c(C(=O)NC3CC3)cnc12', 'solubility', 2);
